Protocol Details: folding stability dG unfold from trypsin proteolysis; higher = more stable
Measured Attribute: folding stability dG unfold

Task item: # input sequence: SMITLELTDPATGAKYTLTIDPSTGKAKVTRTPPTGPPVSGTGTIEGNTLTITLYEPSGKPLATLTLPLPSA [r9_665_JUSTAS] ; wanted: its folding stability dG unfold
Reply: 3.89 kcal/mol

Task item: Queued: SAGGMEVVEIKYDPETGTVTVTVAIPESLSFDEVAPEVEALVKEKTGRPVEITVDPATGTVTATVPRSAGGS [r8_314_JUSTAS]
Reply: 0.832 kcal/mol

Task item: Queued: SAGAPLEVPGPLVTVTEEEVPGKPLVFIPTPDGLIVVDLVTGKAERYPLYSEEPIVLDVPPGVVIELPSAGG [r19_138_JUSTAS]
Reply: 1.02 kcal/mol

Task item: Queued: SAGGSAGGSAGGWYIYFPNHYYPIKKITINPGGNIEIEFPNGNERTFDNVSIMPPGQEISAGGSAGGSAGGS [r10_1151_TrROS]
Reply: 0.178 kcal/mol

Task item: Queued: SAGGSAGGMTLVLEGMSEEELEELARKLRELAEELGLKVKITVERREDGRVRLTVEIELPEELPSAGGSAGG [r6_906_TrROS_Hall]
Reply: 4.36 kcal/mol

Task item: Queued: SAGGKKKKTIVIVLEVSEEEAEKIIEALKKELEKKGFKIEKIEVRKVPDKPMVIVTIKLENGEELTFISAGG [r13_421_TrROS_Hall]
Reply: 1.97 kcal/mol

Task item: Queued: SAGGSAPLPAREFADEIMKKSPGPVEITVVFKEPDEYYVAKITMNPNNGKPQIKVERIPPEDLKKLSAGGSA [r15_156_TrROS]
Reply: 0.42 kcal/mol

Task item: Queued: SAGGSAGGSAGGSDTPGNYKKVKITLKRVTLGDNNTPKVETVELEVTVPPNYTLEDVLSSAGGSAGGSAGGS [r4_283_TrMRF]
Reply: 0.976 kcal/mol

Task item: Queued: SAGGSAGGSAMPKVTIKITVYNAETGELRTVTLTLPEEDMSLEEIAAALPPGWRIVKVELLSAGGSAGGSAG [r3_80_TrROS_Hall]
Reply: 3.46 kcal/mol

Task item: Queued: SAGGSAMTVEELKELFPGYPITEITDFQPVDGWYTLSIKYPNNGKKRQINVEGMPPELAKEIMELISAGGSA [r15_830_TrROS]
Reply: 0.161 kcal/mol

Task item: Queued: SAMKETEIPDPVTGNTYTVIDFDDATVVIKNYPDSLTITIIPPPSNTSTTIPMKPGEEEKVLKELGIPPSAG [r14_4_JUSTAS]
Reply: 0.591 kcal/mol

Task item: Queued: SAGGSPPNITYELTFPDGTVYTDPLPGKSLEELKEYVKSLNFTNVEVTVYEESSEVSTYKVTIPPNESAGGS [r16_700_JUSTAS]
Reply: 0.169 kcal/mol

Task item: Queued: SAGGSAGGSAGGSGMTYRTVEIEVRLPEVPGKTVKITIVVPEGATEEEIKALAEELARKSAGGSAGGSAGGS [r4_442_TrROS_Hall]
Reply: 2.87 kcal/mol

Task item: Queued: SAGGGQTIEIKFPVPNENYRVYLMVYDPDKPISVEPQRFDPPDGEVTDKIKLPPDVKIGFMAFPPEDMSAGG [r13_977_TrROS]
Reply: 0.631 kcal/mol

###

Would you kindly list folding stability dG unfold for each of these sequences?
Protocol Details: folding stability dG unfold from trypsin proteolysis; higher = more stable
The reply must contain the numeric value and, after it, the unit.

Task item: # input sequence: SAGGSAGGSAKKKKYKVKIKVINENGEIYEIDEIYFDEKTKKIYIKIKNKDGEEKVFEIELDSAGGSAGGSA [r18_370_TrROS_Hall] ; wanted: its folding stability dG unfold
Reply: 2.4 kcal/mol

Task item: Queued: SAGGSAGGSAPPNLKIEIDLQRHPEDDHIFLEMEATYPDDGKELKVMIMINPDDGKIGIMIMSAGGSAGGSA [r18_383_TrROS]
Reply: 2.76 kcal/mol

Task item: Queued: SAGEELLREIAKKLNLPEGAEIVKVEIKVEEKDGRLRITITITVRNKETGELKTIEIEIEIELPEEEEESAG [r5_94_TrROS_Hall]
Reply: 3.9 kcal/mol

Task item: Queued: SAGMTITVPGNVTVNVVITAYKFDENGNLIGPYTLVKPITVPENSTITIDLPNDEPNVVIIEIKAIPASAGG [r19_295_TrMRF]
Reply: 3.16 kcal/mol

Task item: Queued: SADPNYHYKYKIKIEIAWFPPDDLEKLPPGMIMIPFDDHWIMIVIKLEPVEREPPPPPPEYDPETGDWKSAG [r14_126_TrROS]
Reply: 2.5 kcal/mol

Task item: Queued: SAGGMIRVEDTSTSVSIDIEITPLPNGQYKATITTTTTSAKLLPNGTPVTTTTPTTSTVTITPDVPLLSAGG [r13_561_JUSTAS]
Reply: 1.47 kcal/mol

Task item: Queued: SAGGAPVTTFSLTLENPETGLNWTSTSATYDPATGTLTLNLKRPQSGESLTLTTPVTVVSPEEPELASAGGS [r8_193_JUSTAS]
Reply: 0.699 kcal/mol

###

Protocol Details: folding stability dG unfold from trypsin proteolysis; higher = more stable
Would you kindly list folding stability dG unfold for each of these sequences?
Provide the reading as a plain figure in kcal/mol.

Task item: # input sequence: SAGGSAGGSAGGYFIRYPGNGREIMIPPDDIEDFLDTLPPGFPPENVKIYPFDPNGKPISAGGSAGGSAGGS [r10_13_TrROS] ; wanted: its folding stability dG unfold
Reply: -0.242

Task item: Queued: SAGGSAGGSMVPGKLLVTITDPNNGLTTTLDLPLEVKTEEDIEAEVQKIKEENPGKKVSVKLLSAGGSAGGS [r12_65_JUSTAS]
Reply: 1.65

Task item: Queued: SAGGSAGGSMVVVRRLPDGRYLLEVRLEGESLRFEVDGEEEVERFAKALEELTGRPVEVLTVESAGGSAGGS [r12_783_TrMRF]
Reply: 4.56

Task item: Queued: SAGGSAGGSAGGTEEEALEKAERLAKELGVDLKDVKILNPPDKFEAVFTIPGTGENIKLSAGGSAGGSAGGS [r10_161_JUSTAS]
Reply: -0.505

Task item: Queued: SAGGSAGGSAMPGKTYRVRIRLYNEETGELVEERELEVETLDELKEAAEKEGWKIVEIEVESAGGSAGGSAG [r3_423_TrROS_Hall]
Reply: 3.14

Task item: Queued: SAGGSAGGSAGGMTITLVDPENGVKEAEIEEVDGKLRITVVNEETGEKEEIELPLEELLSAGGSAGGSAGGS [r10_772_TrROS_Hall]
Reply: 0.648

Task item: Queued: SSSSSRTIEYPDSTLELTFTTTPLPDDTYRVPVQVTRYDPVTKTWSTRNLTVPFPPSDPEAAAEAVIARLLS [r1_171_JUSTAS]
Reply: 0.11

###

Protocol Details: folding stability dG unfold from chymotrypsin proteolysis; higher = more stable
Outcome label depends on folding stability dG unfold relative to 0.3 kcal/mol: at/above gives 1, below gives 0.

Task item: Hi team, for SAGGSAGGSAGGWIVRIEHGGKERMFQFDSPEEIKDQIRPMFPNGKKVKVEVMPPDDLKSAGGSAGGSAGGS [r10_1167_TrROS] , is the recorded folding stability dG unfold at or above 0.3 kcal/mol?
Reply: 0

Task item: Queued: SAGGSGSRIVVETITEYEVFETPTGKKKTKVFKTKKIVTETVPMSPADVAAYEAALAEGLGPGALASAGGSA [r2_327_JUSTAS]
Reply: 1

Task item: Queued: SGSLSIEFSSTEPSSPGSITLSKLFPEPEADRATHTIKLPNSTIELEFDSAEDLIKNVEKLLKELGNPGKSA [r9_258_JUSTAS]
Reply: 0

Task item: Queued: SAGGSAGGSASVTTTTTPLPGDRTLTTTTYPDGTVKVTTYTVDTATGTVTSTSTTLSPATLTSAGGSAGGSA [r18_325_JUSTAS]
Reply: 0

Task item: Queued: SAGSMLSVEEVEVTYNNPETGTPATIKLTVPVFYDPVTGRVEVEVEVEPSPEVPEEVAKEIAEKVKEKRSAG [r14_152_JUSTAS]
Reply: 1

Task item: Queued: SAGGSAGGSAKYITIFFWGSVEEALKSIPIPPGFKVEIDNIHRNPDGWMWVMITIEIPPNMKSAGGSAGGSA [r18_510_TrROS]
Reply: 1

Task item: Queued: SAGGGSMSESLSLVEEEIKVGETVVKVKRLIYPVSGTALVEITKPGGGPIGVFNTTISPSTGGVELLSAGGS [r16_798_JUSTAS]
Reply: 0

###

Protocol Details: folding stability dG unfold (combined trypsin and chymotrypsin); higher = more stable
Outcome label depends on folding stability dG unfold relative to 2 kcal/mol: at/above gives met, below gives not met.

Task item: Hi team, for SAGGSAGGSMLTIEKPMPGTTEEEALEYAEELKEKNPNYKIEVEIEKTEEGYLTVKIKLTKKESAGGSAGGS [r12_425_JUSTAS] , is the recorded folding stability dG unfold at or above 2 kcal/mol?
Reply: not met

Task item: Queued: SAGGSAGGMLVFVVKKIKPGMSDEQKKALEKLVKPGDVIELSPEEIERLAKLPWIQEIKVYPLPSAGGSAGG [r6_381_TrROS_Hall]
Reply: not met

Task item: Queued: SAGGMTIVLPNGITLTFYPDRTVTATVDFPGRPLTLTLDAASLAEAVAAVERAAAEWAAPAPPVVDLSSAGG [r13_896_TrMRF]
Reply: met

Task item: Queued: SAGEVKPGETVTLTIVLSKEELEKLEELAKALPGVEVTEVKVEKLPDGLVRVTITVTKEALEKLKELLESAG [r5_554_TrROS_Hall]
Reply: met

Task item: Queued: SAGGSAGGSAGGMTLVIVVETEEQAEALAEELKKKGFEVTVERDEETNLLVVTVKVKPPPSAGGSAGGSAGG [r7_623_TrROS_Hall]
Reply: met

Task item: Queued: SGMMRTIVLKIPIEEARKLLGDPNKPVSEEELKALVEKLAKEKGLDVEEIKVEKLPDGTYVVTVLVPDLGSA [r9_52_JUSTAS]
Reply: met

Task item: Queued: SAGGSAGGSAGGGMPVEMKITLYDPDGTKIGEYTLKVKSEEELKKAVEEKGYNYEVDKESAGGSAGGSAGGS [r10_958_JUSTAS]
Reply: not met

Task item: Queued: SAGGSAKITIEYDPETGTITIKVELTNEDNGKKVTKEYEIKVDGKLIRIKIDANTGEIVEIEVLPPSAGGSA [r2_331_TrROS_Hall]
Reply: met

Task item: Queued: SAGGNYYPMEFRNPENNHEIRITVERDPPGMYRINIQIENPNGNQIPFPMTMPPDDFKPGDEFEIKIPSAGG [r13_959_TrROS]
Reply: not met

Task item: Queued: SAGGSAGGSAGTEISLPSSLPDRPIETVPVEIVSPGPGDPRRETINVTRTPDRVLAVDRRSAGGSAGGSAGG [r11_21_JUSTAS]
Reply: not met

Task item: Queued: SAGGSAMSITISDISSVKNLTITETTPDGTPVTVTVNATTGSGPPTLTFTATTPGTGATTTTTTAFSAGGSA [r15_1006_JUSTAS]
Reply: not met

Task item: Queued: SAGGKLKEAFEKNGYKAYVHPDSPVVTVEFYKPVKLENGEWKPKKLGTKTIEVDGVDLEKAYEILLKESAGG [r13_924_TrMRF]
Reply: not met

Task item: Queued: SKKVKIVIKIKVEVTNKDGKKKTFEFTLVIELSEEEIEKLKKKIEDLLNELKKKYPNIKKVEITEIKILPSA [r9_436_TrROS_Hall]
Reply: met
